meta.source: patent US20060024289

target: T1, Ac-IEPD-AMC; assay: Michaelis-Menten kinetics of fluorogenic tetrapeptide hydrolysis
T1 chain: XIEPDX
Provide the recorded Km for the entries that follow.

Below, 5 proteins whose answers are already recorded.
rat granzyme B I99R (protein) IIGGHEAKPHSRPYMAYLQIMDEYSGSKKCGGFLIREDFVLTAAHCSGSKINVTLGAHNIKEQEKMQQIIPVVKIIPHPAYNSKTRSNDIMLLKLKSKAKRSSAVKPLNLPRRNVKVKPGDVCYVAGWGKLGPMGKYSDTLQEVELTVQEDQKCESYLKNYFDKANEICAGDPKIKRASFRGDSGGPLVCKKVAAGIVSYGQNDGSTPRAFTKVSTFLSWIKKTMKKS    1800 µM
rat granzyme B I99A (protein) IIGGHEAKPHSRPYMAYLQIMDEYSGSKKCGGFLIREDFVLTAAHCSGSKINVTLGAHNIKEQEKMQQIIPVVKIIPHPAYNSKTASNDIMLLKLKSKAKRSSAVKPLNLPRRNVKVKPGDVCYVAGWGKLGPMGKYSDTLQEVELTVQEDQKCESYLKNYFDKANEICAGDPKIKRASFRGDSGGPLVCKKVAAGIVSYGQNDGSTPRAFTKVSTFLSWIKKTMKKS    2500 µM
rat granzyme B I99F (protein) IIGGHEAKPHSRPYMAYLQIMDEYSGSKKCGGFLIREDFVLTAAHCSGSKINVTLGAHNIKEQEKMQQIIPVVKIIPHPAYNSKTFSNDIMLLKLKSKAKRSSAVKPLNLPRRNVKVKPGDVCYVAGWGKLGPMGKYSDTLQEVELTVQEDQKCESYLKNYFDKANEICAGDPKIKRASFRGDSGGPLVCKKVAAGIVSYGQNDGSTPRAFTKVSTFLSWIKKTMKKS    500 µM
rat granzyme B N218A/R192A (protein) IIGGHEAKPHSRPYMAYLQIMDEYSGSKKCGGFLIREDFVLTAAHCSGSKINVTLGAHNIKEQEKMQQIIPVVKIIPHPAYNSKTISNDIMLLKLKSKAKRSSAVKPLNLPRRNVKVKPGDVCYVAGWGKLGPMGKYSDTLQEVELTVQEDQKCESYLKNYFDKANEICAGDPKIKRASFAGDSGGPLVCKKVAAGIVSYGQADGSTPRAFTKVSTFLSWIKKTMKKS    1700 µM
rat granzyme B N218A/R192E (protein) IIGGHEAKPHSRPYMAYLQIMDEYSGSKKCGGFLIREDFVLTAAHCSGSKINVTLGAHNIKEQEKMQQIIPVVKIIPHPAYNSKTISNDIMLLKLKSKAKRSSAVKPLNLPRRNVKVKPGDVCYVAGWGKLGPMGKYSDTLQEVELTVQEDQKCESYLKNYFDKANEICAGDPKIKRASFEGDSGGPLVCKKVAAGIVSYGQADGSTPRAFTKVSTFLSWIKKTMKKS    > 2000 µM

Report Km for each item below.
1. rat granzyme B Y174A (protein) IIGGHEAKPHSRPYMAYLQIMDEYSGSKKCGGFLIREDFVLTAAHCSGSKINVTLGAHNIKEQEKMQQIIPVVKIIPHPAYNSKTISNDIMLLKLKSKAKRSSAVKPLNLPRRNVKVKPGDVCYVAGWGKLGPMGKYSDTLQEVELTVQEDQKCESYLKNAFDKANEICAGDPKIKRASFRGDSGGPLVCKKVAAGIVSYGQNDGSTPRAFTKVSTFLSWIKKTMKKS
2. rat granzyme B N218A (protein) IIGGHEAKPHSRPYMAYLQIMDEYSGSKKCGGFLIREDFVLTAAHCSGSKINVTLGAHNIKEQEKMQQIIPVVKIIPHPAYNSKTISNDIMLLKLKSKAKRSSAVKPLNLPRRNVKVKPGDVCYVAGWGKLGPMGKYSDTLQEVELTVQEDQKCESYLKNYFDKANEICAGDPKIKRASFRGDSGGPLVCKKVAAGIVSYGQADGSTPRAFTKVSTFLSWIKKTMKKS

1. 1000 µM
2. 700 µM
